Entries below carry reported ΔTm on Serine/threonine-protein kinase 38 (Homo sapiens).
// return numeric value only (unit: °C, not printed)

Answered examples (3):
1) Oc1cc(O)cc(/C=C/c2ccc(O)c(O)c2)c1 [PICEATANNOL]
1.7
2) COC(=O)[C@]1(O)C[C@@H]2O[C@@]1(C)n1c3ccccc3c3c4c(c5c6ccccc6n2c5c31)C(=O)NC4 (single isomer, unassigned)
3.9
3) Cc1c2ccncc2c(C)c2c1[nH]c1ccccc12 [ELLIPTECINE]
1.1

What does the record list as ΔTm for O=c1c(O)c(-c2ccc(O)c(O)c2)oc2cc(O)cc(O)c12 [QUERCETIN] ?
3.2
